# viability annotations
Experiment: reversal of MRP1-mediated doxorubicin resistance, pilot screen, H69AR cells, doxorubicin co-treatment (AID 601)
Details: H69AR cells + 2 uM doxorubicin, CellTiter-Glo, 72 h; measured here: viability with 2 uM doxorubicin; at 10 µM; stronger effect = lower value
Please reply with the bare figure in % and do not write the unit itself.

Please review the following examples before continuing.
molecule: Cc1ccc(OCCC(=O)OCC(=O)C(C)(C)C)cc1
numeric.value: 85

molecule: CC(C)(C)n1cnc2cc(NS(=O)(=O)c3ccc(Br)cc3)ccc21
numeric.value: 95.4

molecule: Cc1ccc(NC2c3ncccc3C(=O)N2C2CCCCC2)cc1C (stereo unspecified)
numeric.value: 97

molecule: CCCCn1cnc2c(cnn2-c2ccc(Cl)cc2)c1=O
numeric.value: 87.9

molecule: CCn1nnnc1NCc1cccn1C
numeric.value: 92.4

molecule: CC(=O)NC(Cc1cc(C)ccc1C)C(=O)N1CCN(C(=O)Nc2ccc(C(C)=O)cc2)CC1 (stereo unspecified)
numeric.value: 94

The recorded viability for CC(=O)NC(Cc1c[nH]c2ccccc12)C(=O)OCC(=O)Nc1cc(C)on1 (stereo unspecified) is 86

The recorded viability for Cc1ccc(NC(=O)C2CC=CCC2C(=O)N2CCCCC2)cc1 (stereo unspecified) is 83.2

The recorded viability for `Cc1cc(C)nc(NC(=O)c2c(-c3c(Cl)cccc3Cl)noc2C)n1` is 90.3

The recorded viability for `Cc1cc(Cl)cc2c1NC(=O)[C@]21[C@@H]2C(=O)N(Cc3ccccc3)C(=O)[C@@H]2[C@@H]2CCCN21` is 80.9

The recorded viability for `CCSc1nnc(NC(=O)CCNS(=O)(=O)c2cc(Br)cnc2N)s1` is 106

###

Test: growth inhibitors of H69AR lung tumor, primary screen, human, duplicate replicates (AID 580);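 also: 100% = mean luminescence of untreated wells and 0% = no signal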
Conditions: H69AR lung tumor cells viability, ATP luminescence, 72 h; at 10 µM; stronger effect = lower value
# viability annotations
Please reply with the bare figure in % and do not write the unit itself.

Please review the following examples before continuing.
compound: Cc1oc(-c2ccccc2F)nc1CS(=O)(=O)CC(=O)N1CCN(Cc2ccccc2)CC1
viability / %: 90.2
//
compound: O=c1oc2ccccc2n1CCc1ccccc1
viability / %: 93.7
//
compound: O=C(Cn1cnc2c(cnn2-c2ccc(F)cc2)c1=O)N1CCCc2ccccc21
viability / %: 94.4
//
compound: COc1cccc(-c2nc(CS(=O)CC(=O)NCCCOC(C)C)c(C)o2)c1 (stereo unspecified)
viability / %: 101
//
compound: O=C(NCCC1=CCCCC1)N[C@@H](Cc1ccccc1)C(=O)O
viability / %: 108

The recorded viability for `COc1ccc(OCCC(=O)NCc2ccccc2)cc1` is 103

The recorded viability for `CCOc1ccc(Cc2nn[nH]n2)cc1` is 101

The recorded viability for CCOC(=O)C1=C(C)NC(SC(C)=O)=NC1c1ccc(OC(C)=O)c(OC)c1 (stereo unspecified) is 85.3

The recorded viability for `Cc1ccc(-c2c3c(=O)n(C)c(=O)n(C)c3cn2CCCN2CCOCC2)cc1` is 77.8

The recorded viability for `COc1cc(NC(=O)Cc2nn(C)c(=O)c3ccccc23)cc(OC)c1` is 84.3

The recorded viability for `COC(=O)Cc1c(C)nc2nc(-c3ccco3)[nH]n2c1=O` is 98.7

###

Experiment: reversal of MRP1-mediated doxorubicin resistance, pilot screen, H69AR cells, doxorubicin co-treatment (AID 601)
Conditions: H69AR cells, CellTiter-Glo, 72 h; compound alone cytotoxicity; at 10 µM
Returns: string. Value is True if measured viability is below 90%, and False if it is greater than or equal to it.

test.smiles: C/C(N)=C(/C#N)C(=O)CSc1nnc(Nc2cccc(C)c2)s1
class.assignment: True

Query: Please check: viability for `O=S(=O)(NCCc1ccccn1)c1cccs1` , strictly under 90% or not?
Response: False

###

# Her2 level annotations
Molecular target: Receptor tyrosine-protein kinase erbB-2 (Homo sapiens) (UniProt P04626)
Sequence (P04626 whole entry, looked up): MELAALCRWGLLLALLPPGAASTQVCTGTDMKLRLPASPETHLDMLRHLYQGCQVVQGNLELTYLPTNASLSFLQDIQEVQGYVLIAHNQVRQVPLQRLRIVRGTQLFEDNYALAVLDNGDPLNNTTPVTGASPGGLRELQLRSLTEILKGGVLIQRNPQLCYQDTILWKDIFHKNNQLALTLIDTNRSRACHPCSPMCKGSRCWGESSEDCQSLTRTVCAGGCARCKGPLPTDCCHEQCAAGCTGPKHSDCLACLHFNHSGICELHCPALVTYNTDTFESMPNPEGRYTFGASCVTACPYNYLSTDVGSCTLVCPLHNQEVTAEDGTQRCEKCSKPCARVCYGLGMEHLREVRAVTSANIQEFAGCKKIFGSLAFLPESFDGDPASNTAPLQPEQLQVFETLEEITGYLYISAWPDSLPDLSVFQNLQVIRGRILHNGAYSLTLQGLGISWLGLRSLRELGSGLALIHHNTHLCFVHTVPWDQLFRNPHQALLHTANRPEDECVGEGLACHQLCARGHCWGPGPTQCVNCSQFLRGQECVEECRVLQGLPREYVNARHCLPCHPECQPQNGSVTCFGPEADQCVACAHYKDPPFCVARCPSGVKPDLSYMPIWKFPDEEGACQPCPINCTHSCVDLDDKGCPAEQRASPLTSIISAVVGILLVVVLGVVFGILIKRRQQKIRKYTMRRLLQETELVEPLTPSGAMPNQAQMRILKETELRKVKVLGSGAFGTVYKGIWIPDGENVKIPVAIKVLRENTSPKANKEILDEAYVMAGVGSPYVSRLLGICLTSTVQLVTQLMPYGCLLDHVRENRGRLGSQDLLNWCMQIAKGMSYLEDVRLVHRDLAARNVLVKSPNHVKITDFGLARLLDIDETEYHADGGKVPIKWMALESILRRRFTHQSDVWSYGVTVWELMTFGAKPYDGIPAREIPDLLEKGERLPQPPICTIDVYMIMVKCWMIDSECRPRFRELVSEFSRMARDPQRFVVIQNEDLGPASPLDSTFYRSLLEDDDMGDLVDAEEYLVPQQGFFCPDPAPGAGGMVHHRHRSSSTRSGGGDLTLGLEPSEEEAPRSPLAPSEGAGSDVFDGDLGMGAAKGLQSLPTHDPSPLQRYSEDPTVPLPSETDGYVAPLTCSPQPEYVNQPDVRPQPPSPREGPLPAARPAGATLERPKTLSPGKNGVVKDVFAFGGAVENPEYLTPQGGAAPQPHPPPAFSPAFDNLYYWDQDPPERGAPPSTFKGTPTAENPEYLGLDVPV
Assay: reducers of endogenous Her2 protein level, primary screen, SKBR3 breast tumor cells, AlphaScreen, ATP viability (AID 461);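 as to Her2 level: lower value means less Her2 protein in the cells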;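 as to viability: percent of carrier control wells set as 100% viability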
Settings: 18-24 h, at 10 µM, stronger effect = lower value
Please reply with the bare figure in % and do not write the unit itself.

Please review the following examples before continuing.
molecule: O=C(c1ccco1)N1CCN(S(=O)(=O)c2ccc(C3CCCCC3)cc2)CC1
Her2 level, %: 97.5
//
molecule: OC(CCN1CCOCC1)(c1ccc(Cl)cc1)C1CCCCC1 (stereo unspecified)
Her2 level, %: 102
//
molecule: CN(C1CCCCC1)S(=O)(=O)c1ccc(NC(=O)c2ccco2)cc1
Her2 level, %: 91.5
//
molecule: O=S(NCc1ccco1)C12CC3CC(CC(C3)C1)C2 (stereo unspecified)
Her2 level, %: 116
//
molecule: CCCc1nnc(SCC(=O)N2CCOCC2)n1Cc1ccco1
Her2 level, %: 87.5
//
molecule: CCCn1c(SCC(=O)N2CCc3ccccc3C2)nc2c1c(=O)n(C)c(=O)n2C
Her2 level, %: 128

The recorded Her2 level for `COc1cccc(OC)c1C(=O)Nc1cccc(C(C)=O)c1` is 99

###

# viability annotations
Experiment: reducers of endogenous Her2 protein level, primary screen, SKBR3 breast tumor cells, AlphaScreen, ATP viability (AID 461);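 as to viability: percent of carrier control wells set as 100% viability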
Conditions: 18-24 h, measured here: SKBR3 viability, ATP luminescence, at 10 µM
Please reply with the bare figure in % and do not write the unit itself.

compound: COc1ccc(/C(O)=C2/C(=O)C(=O)N(CC3CCCO3)C2c2cccc(OC)c2)cc1 (centres undefined)
unit.text: %
viability: 106
//
compound: CCn1c(=O)cc(SCC(=O)N2CCN(C3CCCCC3)CC2)c2ccccc21
unit.text: %
viability: 88.5
//
compound: CN(C)S(=O)(=O)N1CCN(C(=O)N(c2ccccc2)c2ccccc2)CC1
unit.text: %
viability: 81.5
//
compound: Cc1cc2c(c(=O)o1)C(Cc1ccccc1)C(C#N)=C(N)O2 (centres undefined)
unit.text: %
viability: 94
//
compound: Cc1nn(C)cc1NC(=O)CCSc1nc(-c2ccco2)cc(C(F)(F)F)n1
unit.text: %
viability: 90.5

The recorded viability for `CCOC(=O)c1ccccc1NC(=O)c1ccc(NS(C)(=O)=O)cc1` is 93.5

The recorded viability for `O=c1c2cc(Cl)ccc2[nH]c(=S)n1Cc1ccco1` is 84.5

The recorded viability for CC(=O)C1=C(O)C(=O)N(Cc2ccco2)C1c1ccc(F)cc1 (centres undefined) is 102

The recorded viability for `COc1ccc(NC(=O)Cn2nnc(-c3ccccc3N)n2)cc1OC` is 106

The recorded viability for `COC(=O)CCCCCNc1ccc(C(=O)OC)cc1N` is 107

The recorded viability for CCOC(=O)C1=C(C)NC(SC(C)=O)=NC1c1ccc(OC(C)=O)c(OC)c1 (centres undefined) is 106

###

# Her2 level annotations
Target: Receptor tyrosine-protein kinase erbB-2 (Homo sapiens)
Test: reducers of endogenous Her2 protein level, primary screen, SKBR3 breast tumor cells, AlphaScreen, ATP viability (AID 461);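 as to Her2 level: lower value means less Her2 protein in the cells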;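 as to viability: percent of carrier control wells set as 100% viability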
Conditions: 18-24 h, at 10 µM, stronger effect = lower value
Active and inactive are the calls of the source.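 The calls were made as follows: active = Her2 level under about 52% in both replicate screens, with viability over 70% of control (limit read from the data); inconclusive = Her2 under the limit in one screen only, or viability under 70%; inactive = Her2 level above the set limit.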

Please review the following examples before continuing.
compound: O=C(c1ccco1)N1CCN(C(=O)C2CCN(S(=O)(=O)c3cccc4nsnc34)CC2)CC1
result: 102% (inactive)

compound: CCC(=O)Nc1c2c(nn1-c1ccccc1C)CSC2
result: 89.5% (inactive)

compound: CCn1c(=S)sc2nc(C)sc21
result: 100% (inactive)

compound: CCOc1ccc(Nc2nc(Cc3nnc(SCC(N)=O)o3)cs2)cc1
result: 88% (inactive)

compound: Cc1cc(C)n(C2=NS(=O)(=O)c3ccccc32)n1
result: 115% (inactive)

compound: CCN(c1ccc(OC)cc1)S(=O)(=O)c1ccc2c(c1)CCN2C(=O)CCC(=O)O
result: 97.5% (inactive)

compound: COc1ccc(N(CC(=O)N2CCN(Cc3ccc4c(c3)OCO4)CC2)S(C)(=O)=O)cc1OC
result: 89.5% (inactive)

compound: Cc1ccc(C(=O)N2CCN(C(=O)c3ccc(C)c(C)c3)C(C)C2)cc1C (stereo not drawn)
result: 81% (inactive)

compound: COc1ccc(-c2nnc(-c3cccs3)o2)cc1OC
result: 110% (inactive)

compound: CCOC(=O)c1ccc(NC(=O)c2ccc(NS(C)(=O)=O)cc2)cc1
result: 83% (inactive)

The recorded Her2 level for Cc1ccc(OCC(O)Cn2c(=N)n(CCN3CCCCC3)c3ccccc32)cc1 (stereo not drawn) is 63% (inactive)

The recorded Her2 level for CCC1C(=O)n2nc(-c3ccccc3)cc2N=C1C (stereo not drawn) is 66.5% (inactive)

The recorded Her2 level for `CCOCCCNCC(=O)N1CCN(S(=O)(=O)c2ccc(C)cc2)CC1` is 99.5% (inactive)

The recorded Her2 level for `CCOC(=O)Cn1c(CN2CCN(c3cccc(Cl)c3)CC2)nc2c1c(=O)[nH]c(=O)n2C` is 87% (inactive)

The recorded Her2 level for Cc1ccc(S(=O)(=O)NCC(=O)N(CC(=O)NCc2ccccc2)CC2CCCO2)cc1 (stereo not drawn) is 91.5% (inactive)

The recorded Her2 level for `N#Cc1nc(-c2ccco2)oc1NCCc1ccccc1` is 98.5% (inactive)

The recorded Her2 level for `Cn1nnnc1SCC(=O)NC1CCCCC1` is 77% (inactive)

The recorded Her2 level for CCCN(CCC)CCNC(=O)C(NS(=O)(=O)c1ccc2c(c1)CCC(=O)N2)c1ccccc1 (stereo not drawn) is 86.5% (inactive)
